# assay: qHTS assay for small molecule agonists of the p53 signaling pathway (AID 651631); also: nearly all actives have a fitted effect of over 15% in size
# condition_label: HCT-116 p53RE-bla reporter, beta-lactamase FRET ratio, 16 h; series mostly up to 73.3 µM
# Source text: U.S. Tox21 Program National Center for Advancing Translational Sciences [NCATS] NIH Chemical Genomics Center [NCGC] U.S. Environmental Protection Agency [EPA] National Institutes of Environmental Health Sciences [NIEHS] National Toxicology Program [NTP] U.S. Food and Drug Administration [FDA] […] The activation of the reporter gene under culture conditions can be detected by fluorescence intensity. […]
Results filed as inconclusive are left out. Calls of active or inactive are those of the source. Calls follow the shape of the full dose curve.
Response enum: active, inactive

Status in this test for COCCCC/C(=N\OCCN)c1ccc(C(F)(F)F)cc1 ?
inactive

Status in this test for O=c1c(-c2ccccc2)c1-c1ccccc1 ?
active

Status in this test for NNC(=O)c1cccc(C(=O)NN)c1 ?
inactive

Status in this test for Cc1nc(-c2ccc3c(c2)CCN(CCC2CCC(NC(=O)/C=C/c4ccc(F)cc4)CC2)CC3)no1 (stereo not drawn) ?
active

Status in this test for COc1cc(/C=C/C(=O)O[C@H]2CC[C@]34C[C@]35CC[C@]3(C)[C@@H]([C@H](C)CCC=C(C)C)CC[C@@]3(C)[C@@H]5CC[C@H]4C2(C)C)ccc1O ?
active

Status in this test for CCCCCOC(=O)CCCC ?
inactive

Status in this test for CC[C@@]1(O)C(=O)OCc2c1cc1n(c2=O)Cc2cc3c(CN(C)C)c(O)ccc3nc2-1 ?
active

Status in this test for O=C1C=CC(=O)N1c1ccc(Cc2ccc(N3C(=O)C=CC3=O)cc2)cc1 ?
active

Status in this test for Oc1c(Cl)cc(Cl)c2cccnc12 ?
active

Status in this test for [Cl][Bi]([Cl])([c]1ccccc1)([c]1ccccc1)[c]1ccccc1 ?
active

Status in this test for CC(=O)OCC(C)OC(C)=O (stereo not drawn) ?
inactive

Status in this test for C=C(C)C(=O)OCC[N+](C)(C)C ?
inactive

Status in this test for Cc1cc(C2CCCCC2)n(O)c(=O)c1 ?
active

====

# assay: qHTS assay to identify small molecule agonists of the peroxisome proliferator-activated receptor delta (PPARd) signaling pathway - cell viability counter screen (AID 743211); also: nearly all actives have a fitted effect of over 55% in size; also: potency is read from the fitted curve at half-maximal effect
# condition_label: PPARd-bla HEK293H viability, CellTiter-Glo luminescence, 17 h; series mostly up to 62.6 µM
Records with an inconclusive call do not appear. Active and inactive are the calls of the source. Calls come from the whole dose curve; as a rule, active = well fitted cell-killing curve with a large enough effect in the repeat runs; inconclusive = weak or mixed curves; inactive = no such curve, though single readings can be large or run the other way.
recorded_endpoint: Potency

Record excerpt, results attached:
- molecule: "N#CC1(c2ccc(F)cc2)CCC(=O)CC1"
  Potency: "inactive"
- molecule: "CCN(C(=O)c1cc(C)cc(OC[C@H](C)Nc2ccncc2)c1)C(C)C"
  Potency: "inactive"
- molecule: "CCC1OCC(COc2ccc(Oc3ccccc3)cc2)O1 (stereo not drawn)"
  Potency: "inactive"
- molecule: "CO[Si](CCCNc1ccccc1)(OC)OC"
  Potency: "inactive"
- molecule: "O=c1[nH]sc2cc(Cl)ccc12"
  Potency: "26.6 µM (active)"
- molecule: "CCCCCCCCCCCC(=O)NCCCN(C)C"
  Potency: "21.9 µM (active)"

Quick one: Potency of Cc1ccc2oc(CN(Cc3ccccc3)C(=O)Nc3c(F)cc(F)cc3F)c(-c3ccc(Cl)cc3)c2c1 ?
inactive

Quick one: Potency of CC1=C(/C=C/C(C)=C/C=C/C(C)=C/C=O)C(C)(C)CCC1 ?
12.2 µM (active)
